- test details: MTD toxicity test in rats
- Format: in vivo
- test parameters: rat, in vivo, 150 mg/kg; in rats; read-out: MTD toxicity dose
quantity kind: MTD at 14 days

# input Which MTD at 14 days is reported for this compound? CNC(=O)c1cc2c(Oc3c(F)cc(NC(=O)NC4CC4)c(Cl)c3F)ccnc2cc1OC
# output > 150 mg/kg
